Origin of values: PubChem BioAssay (Tox21)

# TEST: qHTS assay to identify small molecule agonists of the estrogen related receptor (ERR) signaling pathway from Tox21 library (AID 1224849); note: % is set by controls: 0 for no effect and ±100 for the full control effect; nearly all actives have a fitted effect of over 15% in size
# ASSAY_SETUP: ERR reporter cell line, ONE-Glo luciferase, 18 h; at 92.4 µM (top of the series) unless noted
Calls of active or inactive are those of the source. Calls come from the whole dose curve.
Kindly supply the reported activity change, positive = activation values for the records listed here.

*Q* Identify measured activity change, positive = activation corresponding to O=C(CS(=O)Cc1ccco1)NC/C=C\COc1cc(CN2CCCCC2)ccn1 (stereo not given)
*A* 7.25% [at 42.5 µM] (inactive)

*Q* Identify measured activity change, positive = activation corresponding to CCCOC(OCCC)OCCC
*A* 4.24% (inactive)

*Q* Identify measured activity change, positive = activation corresponding to On1nnc2ccccc21
*A* 9.52% (inactive)

*Q* Identify measured activity change, positive = activation corresponding to C=C(C)C(=O)OCCOP(=O)(O)OCCOC(=O)C(=C)C
*A* 5.76% (inactive)

*Q* Identify measured activity change, positive = activation corresponding to COc1ccc(C2CNC(=O)C2)cc1OC1CCCC1 (stereo not given)
*A* -4.57% [at 42.5 µM] (inactive)
